As shown below, each of these molecules has a reported EC50 value.
target: Melanocortin receptor 3 (Mus musculus, UniProt P33033); assay: In vitro agonist potency for Mouse Melanocortin 3 receptor
Sequence (P33033 whole entry): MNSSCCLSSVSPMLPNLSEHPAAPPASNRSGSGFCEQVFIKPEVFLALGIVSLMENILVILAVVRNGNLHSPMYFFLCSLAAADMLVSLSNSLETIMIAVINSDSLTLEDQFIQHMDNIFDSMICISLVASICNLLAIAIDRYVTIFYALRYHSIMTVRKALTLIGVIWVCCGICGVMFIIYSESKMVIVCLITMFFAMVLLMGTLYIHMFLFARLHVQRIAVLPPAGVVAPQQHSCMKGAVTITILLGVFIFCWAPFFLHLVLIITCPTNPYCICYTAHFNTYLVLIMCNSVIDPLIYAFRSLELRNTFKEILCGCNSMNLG
Give the value in nM but do not write nM after it.

Consider the following illustrative entries.
# molecular.string, EC50 (nM)
rows = [
    ("CCCCCCCCCCCCCCCCC(=O)N[C@@H](Cc1c[nH]cn1)C(=O)N[C@H](Cc1ccccc1)C(=O)N[C@@H](CCCN=C(N)N)C(=O)N[C@@H](Cc1c[nH]c2ccccc12)C(N)=O", 266),
    ("CCCCCCCCCCC(=O)N[C@@H](Cc1cnc[nH]1)C(=O)N[C@H](Cc1ccccc1)C(=O)N[C@@H](CCCNC(=N)N)C(=O)N[C@@H](Cc1c[nH]c2ccccc12)C(N)=O", 102),
]

We now examine a further molecule.
Task item: Form entry - test system: Melanocortin receptor 3 (Mus musculus, UniProt P33033); read-out: EC50; molecule: `CCCCCCCCCCCCCCC(=O)N[C@@H](Cc1c[nH]cn1)C(=O)N[C@H](Cc1ccccc1)C(=O)N[C@@H](CCCN=C(N)N)C(=O)N[C@@H](Cc1c[nH]c2ccccc12)C(N)=O`
Reply: 134
